All values here come from patent US10654837B2.

The reader will find reported IC50 values listed item by item below.
Molecular target: 5HTR2B (Homo sapiens, UniProt P41595)
Sequence (P41595 whole entry): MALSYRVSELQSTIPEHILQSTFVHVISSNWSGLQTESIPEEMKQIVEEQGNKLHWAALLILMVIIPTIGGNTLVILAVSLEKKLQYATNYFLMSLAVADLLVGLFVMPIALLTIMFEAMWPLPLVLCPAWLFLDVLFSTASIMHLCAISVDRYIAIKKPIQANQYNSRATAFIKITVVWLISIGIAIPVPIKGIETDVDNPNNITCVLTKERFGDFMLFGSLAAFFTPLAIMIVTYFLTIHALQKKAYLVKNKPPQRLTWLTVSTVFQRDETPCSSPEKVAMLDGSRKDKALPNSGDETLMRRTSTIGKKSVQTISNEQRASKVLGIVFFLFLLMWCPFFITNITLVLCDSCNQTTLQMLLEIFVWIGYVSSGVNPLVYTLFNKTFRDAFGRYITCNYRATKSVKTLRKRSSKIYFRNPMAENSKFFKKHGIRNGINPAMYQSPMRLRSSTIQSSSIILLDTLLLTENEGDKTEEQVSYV
Experiment: 5HTR2B antagonist activity, calcium mobilization assay in human Maverick/293 cells (serotonin as agonist)
Settings: intracellular calcium, emission 525 nm, read-out: Ca assay IC50
measurement-label: IC50 (nM)

compound: COc1ccc(S(=O)(=O)N[C@H]2CCOC2)cc1C(=O)Nc1ccccc1Br
numeric-value: 0.2
//
compound: COc1ccc(S(=O)(=O)N[C@H]2CCOC2)cc1C(=O)Nc1ncc(F)cc1Cl
numeric-value: 1.4
//
compound: COc1ccc(S(=O)(=O)NC2COC2)cc1C(=O)Nc1ccccc1Cl
numeric-value: 0.1
//
compound: COc1c(F)cc(S(=O)(=O)N[C@H]2CCOC2)cc1C(=O)Nc1ccc(F)c(C)c1
numeric-value: 3.3
//
compound: COc1ccc(S(=O)(=O)N[C@H]2C[C@@H](O)C2)cc1C(=O)Nc1ccc(F)c(C)c1F
numeric-value: 0.8
//
compound: COc1ccc(N(C)S(=O)(=O)C2CCOC2)cc1C(=O)Nc1ccc(F)c(C)c1 (single isomer, unassigned) [Compound 204b]
numeric-value: 56
//
compound: COc1ccc(S(=O)(=O)N[C@H]2CCOC2)cc1C(=O)Nc1cccc(F)c1F
numeric-value: 17
//
compound: COc1ccc(S(=O)(=O)N[C@H]2CCOC2)cc1C(=O)Nc1cc(F)cc(Cl)c1
numeric-value: 2.9
//
compound: COc1ccc(S(=O)(=O)N[C@H]2CCOC2)cc1C(=O)Nc1ccccc1OC(F)(F)F
numeric-value: 9.9
//
compound: COc1ccc(S(=O)(=O)NC2CCCC[C@@H]2O)cc1C(=O)Nc1ccc(F)c(C)n1 (stereo in doubt) [Compound 28a]
numeric-value: 19

* * *

Target: 5HTR2B (Homo sapiens, UniProt P41595)
Assay: 5HTR2B antagonist activity, calcium mobilization assay in human Maverick/293 cells (serotonin as agonist)
Details: intracellular calcium, emission 525 nm, read-out: Ca assay IC50
Experimental: The 5HTR2B antagonist activity was measured using human Maverick/293 cells in a calcium mobilization assay. […] Intracellular calcium concentration is recorded for 80 seconds by monitoring an emission at a wavelength of 525 nm with an excitation wavelength of 485 nm. Inhibition efficiency of the cell line was determined following the equation: % Inhibition=100%−(D−B)/(S−B)*100%. […]
Labelling: IC50 reported below 1 nM becomes Criterion met; at or above becomes Criterion not met.

compound: [2H]C([2H])([2H])Oc1ccc(S(=O)(=O)N[C@H]2CCOC2)cc1C(=O)Nc1ccc(F)c(C2CC2)n1
category: Criterion met

compound: COc1ccc(S(=O)(=O)NC2CCN(C)C2=O)cc1C(=O)Nc1ccccc1Cl (single isomer, unassigned) [Compound 54b]
category: Criterion not met

compound: COc1ccc(S(=O)(=O)N[C@H]2CCOC2)cc1C(=O)Nc1cccc(C)c1
category: Criterion met

compound: [2H]C([2H])([2H])Oc1ccc(S(=O)(=O)N[C@H]2CCOC2)cc1C(=O)Nc1ccc(F)cc1
category: Criterion met

compound: COc1ccc(S(=O)(=O)N[C@H]2CC[C@@H](O)CC2)cc1C(=O)Nc1ccc(F)c(C)n1
category: Criterion not met

compound: COc1ccc(S(=O)(=O)N[C@@H](C)CO)cc1C(=O)Nc1ccccc1Cl [Compound 55a]
category: Criterion met

compound: COc1ccc(S(=O)(=O)NC2COC2)cc1C(=O)Nc1ccc(F)c(C(F)F)c1
category: Criterion not met

compound: COc1ccc(S(=O)(=O)N[C@H]2CCOC2)cc1C(=O)Nc1ccc(Cl)cc1
category: Criterion not met

compound: COc1ccc(S(=O)(=O)N[C@H]2CCOC2)cc1C(=O)Nc1ccccc1C1CC1
category: Criterion not met

compound: COc1ccc(S(=O)(=O)N[C@@H](C)CO)cc1C(=O)Nc1ccc(F)c(C(F)F)c1 [Compound 35a]
category: Criterion met

compound: COc1ccc(S(=O)(=O)NC2CC[C@@H](O)C2)cc1C(=O)Nc1ccccc1Cl (some centres unmarked) [Compound 57b]
category: Criterion met

compound: COc1ccc(S(=O)(=O)N[C@H]2CCNC2)cc1C(=O)Nc1ccc(Cl)cc1F
category: Criterion met

compound: COc1ccc(S(=O)(=O)N[C@H]2CCOC2)cc1C(=O)Nc1cccc(C#N)c1
category: Criterion not met

* * *

Biological target: 5HTR2B (Homo sapiens)
Test: 5HTR2B antagonist activity, calcium mobilization assay in human Maverick/293 cells (serotonin as agonist)
Conditions: intracellular calcium, emission 525 nm, read-out: Ca assay IC50
pIC50: −log10 of the molar value.
We use 9 as the dividing line for pIC50: on or above the line is rule met, below is rule not met.

molecule: COc1ccc(S(N)(=O)=O)cc1C(=O)Nc1ccc(F)c(C)n1
category: rule not met
--
molecule: COc1ccc(S(=O)(=O)N[C@H]2C[C@H](O)C2)cc1C(=O)Nc1ccc(F)cc1F [Compound 145a]
category: rule not met
--
molecule: COc1ccc(S(=O)(=O)N[C@H]2CCOC2)cc1C(=O)Nc1cc(C)c(F)cn1
category: rule not met
--
molecule: COc1ccc(S(=O)(=O)N[C@@H](C)C(N)=O)cc1C(=O)Nc1ccccc1Cl [Compound 59a]
category: rule met
--
molecule: COc1ccc(S(=O)(=O)N[C@@H](C)CC#N)cc1C(=O)Nc1ccccc1Cl (single isomer, unassigned) [Compound 60a]
category: rule met
--
molecule: COc1ccccc1NC(=O)c1cc(S(=O)(=O)N[C@H]2CCNC2)ccc1OC
category: rule met
--
molecule: COc1ccc(S(=O)(=O)NC2CC(F)(F)C2)cc1C(=O)Nc1ccc(F)c(C)c1
category: rule not met
--
molecule: COc1ccc(S(=O)(=O)NCC(O)C(F)(F)F)cc1C(=O)Nc1ccc(F)cc1 (single isomer, unassigned) [Compound 44a]
category: rule not met
--
molecule: COc1ccc(S(=O)(=O)N[C@H]2CCOC2)cc1C(=O)Nc1ccc(OC(F)F)cc1
category: rule not met
--
molecule: COc1ccc(S(=O)(=O)N[C@H]2CCOC2)cc1C(=O)Nc1cc(F)cc(F)c1
category: rule not met
--
molecule: CCOc1ccccc1NC(=O)c1cc(S(=O)(=O)N[C@H]2CCOC2)ccc1OC
category: rule met
--
molecule: COc1ccc(S(=O)(=O)N[C@H]2CCOC2)cc1C(=O)Nc1cccc(F)c1
category: rule not met
--
molecule: COc1ccc(S(=O)(=O)N(C)[C@H]2CCOC2)cc1C(=O)Nc1ccc(F)c(C)n1
category: rule not met
--
molecule: COc1ccc(S(=O)(=O)N[C@H]2CCOC2)cc1C(=O)Nc1ncc(C)s1
category: rule not met
--
molecule: COc1ccc(S(=O)(=O)N[C@H]2CCOC2)cc1C(=O)Nc1ccc(C#N)cc1F
category: rule not met

* * *

Target: 5HTR2B (Homo sapiens)
Assay: 5HTR2B antagonist activity, calcium mobilization assay in human Maverick/293 cells (serotonin as agonist)
Conditions: intracellular calcium, emission 525 nm, read-out: Ca assay IC50
pIC50: −log10 of the molar value.

compound: COc1ccc(S(=O)(=O)N[C@@H](C)C(N)=O)cc1C(=O)Nc1ccc(F)c(C)c1 [Compound 12a]
pIC50: 8.74
//
compound: COc1ccc(S(=O)(=O)N[C@H]2C[C@@H](O)C2)cc1C(=O)Nc1cccc(C)c1Cl [Compound 140b]
pIC50: 9.05
//
compound: COc1ccc(S(=O)(=O)N[C@H]2CCOC2)cc1C(=O)Nc1cc(F)ccc1Cl
pIC50: 9.52

* * *

Biological target: 5HTR2B (Homo sapiens, UniProt P41595)
Assay: 5HTR2B antagonist activity, calcium mobilization assay in human Maverick/293 cells (serotonin as agonist)
Conditions: intracellular calcium, emission 525 nm, read-out: Ca assay IC50
Experimental: The 5HTR2B antagonist activity was measured using human Maverick/293 cells in a calcium mobilization assay. […] Intracellular calcium concentration is recorded for 80 seconds by monitoring an emission at a wavelength of 525 nm with an excitation wavelength of 485 nm. Inhibition efficiency of the cell line was determined following the equation: % Inhibition=100%−(D−B)/(S−B)*100%. […]
The reader will find reported IC50 values listed item by item below.

molecule: COc1ccc(S(=O)(=O)N[C@@H](C)CO)cc1C(=O)Nc1ccc(F)cc1 [Compound 52a]
IC50 [nM]: 50
--
molecule: COc1ccc(S(=O)(=O)N[C@H]2CCCOC2)cc1C(=O)Nc1ccc(F)cc1 [Compound 41]
IC50 [nM]: 0.7
--
molecule: COc1ccc(S(=O)(=O)N[C@H]2CCOC2)cc1C(=O)Nc1ccc(F)c(C(F)(F)F)c1 [Compound 160]
IC50 [nM]: 4.6
--
molecule: COc1ccc(S(=O)(=O)NC2CCCOC2)cc1C(=O)Nc1ccc(F)c(C)n1 (single isomer, unassigned) [Compound 16b]
IC50 [nM]: 9.1
--
molecule: COc1ccc(S(=O)(=O)N[C@H]2CCNC2)cc1C(=O)Nc1cc(F)ccc1Cl [Compound 186]
IC50 [nM]: 0.3
--
molecule: COc1ccc(S(=O)(=O)N[C@H]2CCOC2)cc1C(=O)Nc1nc(C)c(C)s1 [Compound 83]
IC50 [nM]: 126
--
molecule: COc1ccc(S(=O)(=O)N[C@H](C)C(N)=O)cc1C(=O)Nc1ccc(F)c(C)c1 [Compound 12b]
IC50 [nM]: 122
--
molecule: COc1ccc(S(=O)(=O)N[C@H]2CCOC2)cc1C(=O)Nc1ncc(F)c(C)n1 [Compound 172]
IC50 [nM]: 33
--
molecule: COc1ccc(S(=O)(=O)N[C@H]2CCOC2)cc1C(=O)Nc1ccc(F)c(C#N)c1 [Compound 95]
IC50 [nM]: 648
